B1: NR2F2 (parent)
chain: NIPFFPDLQITDQVALLRLTWSEL

Variants of: B1
Test: protein stability index of a GFP-peptide fusion (GPS, HEK-293T) (PSI 1-6); higher = more stable;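 further: lentivirally expressed fusions sorted by FACS into six bins by GFP to DsRed ratio, PSI derived from sequencing read proportions per bin multiplied by bin number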
Settings: c terminus: a fixed tail appended
Label rule, in plain words: protein stability index of 2 and up is class 1, under 2 is class 0.

D7P = class 1

Then there is this variant:
Query :: Reported protein stability index reaches at least 2 for S22T ?
Result :: class 1

Sourced from the supplement of paper PMC10567573
